TARGET_DESC: FP receptor in porcine tissue (retinal microvessels, uterine myometrium) (pig)
METHOD_NOTES: cell-based or functional assay
Non-standard residues stand in square brackets, D forms with d. No end group written: not given here. dCha = N[C@H](CC1CCCCC1)C(=O)O
PROPERTY: % Inhibition of Maximal Response, 100 µM peptide, 10^-7 M PGF2α, porcine eyecup (%)

{"columns": ["BINDER", "UNIT_ANNOTATION", "REPORTED_RESULT"],
 "data": [
  ["[dI][dL]G[dH][dK][dD][dY][dK] [PCP-13.13]", "%", 63.1],
  ["[dI][dL]G[dH][dR][dD][dY][dK] [PCP-13]", "%", 80],
  ["WEDRFYLL [PCP-10]", "%", 80],
  ["[dI][dL]G[dCha][dR][dD][dY][dK] [PCP-13.24]", "%", 93.8],
  ["[dI][dL][dA][dH][dR][dD][dY][dK] [PCP-13.7]", "%", 76.2],
  ["ILGHRDYK [PCP-8]", "%", 50],
  ["[dI][dL]G[dH][dQ][dD][dY][dK] [PCP-13.18]", "%", 70]
]}
